Entry source: patent US20260116921A1

# Target or test system: IL-23R (Homo sapiens)
# Sequence (Q5VWK5 24-629): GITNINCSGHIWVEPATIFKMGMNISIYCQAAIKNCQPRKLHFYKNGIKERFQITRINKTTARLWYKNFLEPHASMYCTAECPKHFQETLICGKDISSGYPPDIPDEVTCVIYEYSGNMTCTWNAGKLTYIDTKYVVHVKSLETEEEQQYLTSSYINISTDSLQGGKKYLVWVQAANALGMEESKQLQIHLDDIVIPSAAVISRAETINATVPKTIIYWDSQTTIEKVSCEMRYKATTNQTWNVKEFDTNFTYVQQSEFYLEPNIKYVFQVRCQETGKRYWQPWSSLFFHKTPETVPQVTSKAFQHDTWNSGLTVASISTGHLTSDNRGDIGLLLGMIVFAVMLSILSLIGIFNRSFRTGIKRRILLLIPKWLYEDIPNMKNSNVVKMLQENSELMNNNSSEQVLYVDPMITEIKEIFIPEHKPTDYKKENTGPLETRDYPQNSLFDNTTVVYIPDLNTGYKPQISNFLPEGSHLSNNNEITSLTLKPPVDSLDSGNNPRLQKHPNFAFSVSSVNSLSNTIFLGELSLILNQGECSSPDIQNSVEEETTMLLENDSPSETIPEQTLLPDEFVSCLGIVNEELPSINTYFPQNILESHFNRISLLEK
# Procedure details: DB cells IL23R pSTAT3 cell assay (pStat3 HTRF)
# Type: cell-based
# Test settings: Table E3; DB cells, IL-23 0.5 nM, 30 minutes at 37° C.; read-out: pStat3 HTRF (IC50)
pIC50: −log10 of the molar value.
Endpoint label: pIC50

Which pIC50 value is on record for CC(=O)NCCCC[C@H](NC(=O)[C@](C)(CC(C)C)NC(=O)[C@H](Cc1ccc2ccccc2c1)NC(=O)[C@H](Cc1ccc(OCCN)cc1)NC(=O)[C@H]1NC(=O)[C@H](CCC(N)=O)NC(=O)[C@H](Cc2c[nH]c3c(C)cccc23)NC(=O)[C@H]([C@@H](C)O)NC(=O)[C@H](CC(N)=O)NC(=O)[C@@H](NC(C)=O)C(C)(C)SSC1(C)C)C(=O)N(C)CC(=O)NCCC(N)=O [compound 224] ?
< 7.00

***
Given the entry CC(=O)NCCCC[C@H](NC(=O)[C@](C)(CC(C)C)NC(=O)[C@H](Cc1ccc2ccccc2c1)NC(=O)[C@H](Cc1ccc(OCCN)cc1)NC(=O)[C@H]1NC(=O)[C@](C)(CCCCN)NC(=O)[C@H](Cc2c[nH]c3c(C)cccc23)NC(=O)[C@H]([C@@H](C)O)NC(=O)[C@H](CC(N)=O)NC(=O)[C@@H](NC(C)=O)C(C)(C)SSC1(C)C)C(=O)N[C@@H](CC(N)=O)C(=O)NCCC(N)=O [compound 234] , report its measured pIC50.
8.00 to 9.00

====

# Procedure details: Stability in simulated gastric fluid (SGF)
# Type: in vitro ADME
# Test settings: pig (pepsin), simulated gastric fluid (SGF) with porcine pepsin, pH=2, 37° C., 20 μM peptide, read-out: SGF t½ (converted)
Consider the following compounds and their measured half-life at 20 μM readings.
Answer with a number only, understood to be in h.

# get_value(readout='half-life at 20 μM', item= CC(=O)NCCCC[C@H](NC(=O)[C@](C)(CC(C)C)NC(=O)[C@H](Cc1ccc2ccccc2c1)NC(=O)[C@H](Cc1ccc(OCCN)cc1)NC(=O)[C@H]1NC(=O)[C@H](CCC(N)=O)NC(=O)[C@H](Cc2c[nH]c3c(F)cccc23)NC(=O)[C@H]([C@@H](C)O)NC(=O)[C@H](CC(N)=O)NC(=O)[C@@H](NC(C)=O)C(C)(C)SSC1(C)C)C(=O)N[C@@H](CC(N)=O)C(=O)N[C@@H](CC(N)=O)C(N)=O [compound 8] )
15

More entries:
Consider the compound shown here: COc1cccc2[nH]cc(C[C@@H]3NC(=O)[C@H]([C@@H](C)O)NC(=O)[C@H](CC(N)=O)NC(=O)[C@@H](NC(C)=O)C(C)(C)SSC(C)(C)[C@@H](C(=O)N[C@@H](Cc4ccc(OCCN)cc4)C(=O)N[C@@H](Cc4ccc5ccccc5c4)C(=O)N[C@@](C)(CC(C)C)C(=O)N[C@@H](CCCCNC(C)=O)C(=O)N[C@@H](CC(N)=O)C(=O)N[C@@H](CC(N)=O)C(N)=O)NC(=O)[C@H](CCC(N)=O)NC3=O)c12 [compound 4] What is its recorded half-life at 20 μM?
9

====

# Procedure details: in vitro
# Test settings: both, SD, rat, plasma (EDTA)
Endpoint label: half-life at 20 μM

// below: answered compounds
// query half-life at 20 μM value for entry CC(=O)N[C@@H]1C(=O)N[C@@H](CC(N)=O)C(=O)N[C@@H]([C@@H](C)O)C(=O)N[C@@H](Cc2c[nH]c3c(C)cccc23)C(=O)N[C@@H](CCC(N)=O)C(=O)N[C@H](C(=O)N[C@@H](Cc2ccc(OCCN)cc2)C(=O)N[C@@H](Cc2ccc3ccccc3c2)C(=O)N[C@@](C)(CCCCN)C(=O)N[C@@H](CCCNC(N)=O)C(=O)NCCC(=O)NCCC(N)=O)C(C)(C)SSC1(C)C
> 24 h

What would you report for CC(=O)NCCCC[C@@H]1NC(=O)[C@H](Cc2c[nH]c3c(C)cccc23)NC(=O)[C@H]([C@@H](C)O)NC(=O)[C@H](CC(N)=O)NC(=O)[C@@H](NC(C)=O)C(C)(C)SSC(C)(C)[C@@H](C(=O)N[C@@H](Cc2ccc(OCCN)cc2)C(=O)N[C@@H](Cc2ccc3ccccc3c2)C(=O)N[C@@](C)(CCCCN)C(=O)N[C@@H](CCCCNC(C)=O)C(=O)N[C@@H](CO)C(=O)NCCC(N)=O)NC1=O ?
> 24 h

# input for lookup
Fill in the blank: the reported half-life at 20 μM of CC(=O)NCCCC[C@H](NC(=O)C1(NC(=O)[C@H](Cc2ccc3ccccc3c2)NC(=O)[C@H](Cc2ccc(OCCN)cc2)NC(=O)[C@H]2NC(=O)[C@H](CCC(N)=O)NC(=O)[C@H](Cc3c[nH]c4c(C)cccc34)NC(=O)[C@H]([C@@H](C)O)NC(=O)[C@H](CC(N)=O)NC(=O)[C@@H](NC(C)=O)C(C)(C)SSC2(C)C)CCC1)C(=O)N[C@@H](CC(N)=O)C(=O)NCCC(N)=O is ____.
6 h

====

# Procedure details: in vitro
# Test settings: both, SD, rat, plasma (EDTA)
Bridge positions count the residues as written; N and C are the ends. Square brackets hold non-standard residues; d marks the D form. Peptide text beside a SMILES is read from it. Trp(7-Me) = Cc1cccc2c(C[C@H](N)C(=O)O)c[nH]c12; 2Nal = N[C@@H](Cc1ccc2ccccc2c1)C(=O)O; AEF = NCCOc1ccc(C[C@H](N)C(=O)O)cc1; Pen = CC(C)(S)[C@H](N)C(=O)O; αMeK = C[C@](N)(CCCCN)C(=O)O; Aib = CC(C)(N)C(=O)O; βAla = NCCC(=O)O
Endpoint label: half-life at 20 μM

Recorded half-life at 20 μM of CC(=O)NCCCC[C@H](NC(=O)[C@](C)(CCCCN)NC(=O)[C@H](Cc1ccc2ccccc2c1)NC(=O)[C@H](Cc1ccc(OCCN)cc1)NC(=O)[C@H]1NC(=O)[C@H](CCC(N)=O)NC(=O)[C@H](Cc2c[nH]c3c(C)cccc23)NC(=O)[C@H]([C@@H](C)O)NC(=O)[C@H](CC(N)=O)NC(=O)[C@@H](NC(C)=O)C(C)(C)SSC1(C)C)C(=O)N[C@@H](CC(C)C)C(=O)NCCC(N)=O , please.
> 24 h

New cases:
Please report the recorded half-life at 20 μM for CC(=O)NCCCC[C@H](NC(=O)[C@](C)(CCCCN)NC(=O)[C@H](Cc1ccc2ccccc2c1)NC(=O)[C@H](Cc1ccc(OCCN)cc1)NC(=O)[C@H]1NC(=O)C(C)(C)NC(=O)[C@H](Cc2c[nH]c3c(C)cccc23)NC(=O)[C@H]([C@@H](C)O)NC(=O)[C@H](CC(N)=O)NC(=O)[C@@H](NC(C)=O)C(C)(C)SSC1(C)C)C(=O)N[C@@H](CC(N)=O)C(=O)NCCC(N)=O [compound 241] (Ac-[Pen]NT[Trp(7-Me)][Aib][Pen][AEF][2Nal][αMeK]K(Ac)N[βAla]-NH2; disulfide 1-6) .
> 24 h

Continue with CC(=O)NCCCC[C@H](NC(=O)[C@](C)(CC(C)C)NC(=O)[C@H](Cc1ccc2ccccc2c1)NC(=O)[C@H](Cc1ccc(OCCN)cc1)NC(=O)[C@H]1NC(=O)[C@H](CCC(N)=O)NC(=O)[C@H](Cc2c[nH]c3c(C)cccc23)NC(=O)[C@H]([C@@H](C)O)NC(=O)[C@H](CC(N)=O)NC(=O)[C@@H](NC(C)=O)C(C)(C)SSC1(C)C)C(=O)N[C@@H](CC(N)=O)C(=O)N[C@@H](CC(N)=O)C(N)=O
< 1 h

====

# Procedure details: in vitro
# Test settings: human, 20% fecal homogenate (supernatant), anaerobic, pH 6.8
Numbered stars: 1 amine (or outer) side, 2 acyl side, 3 side chain; on linkers, the order of the positions; unused ones are H or OH. Bridge positions count the residues as written; N and C are the ends. Square brackets hold non-standard residues; d marks the D form. Peptide text beside a SMILES is read from it. X4 = CC(C)c1cccc2c(C[C@H](N[*:1])C(=O)[*:2])c[nH]c12; 2Nal = N[C@@H](Cc1ccc2ccccc2c1)C(=O)O; AEF = NCCOc1ccc(C[C@H](N)C(=O)O)cc1; Pen = CC(C)(S)[C@H](N)C(=O)O; αMeK = C[C@](N)(CCCCN)C(=O)O
Endpoint label: half-life at 20 μM

Look at this compound and give its reported half-life at 20 μM. CC(=O)NCCCC[C@@H]1NC(=O)[C@H](Cc2c[nH]c3c(C(C)C)cccc23)NC(=O)[C@H]([C@@H](C)O)NC(=O)[C@H](CC(N)=O)NC(=O)[C@@H](NC(C)=O)C(C)(C)SSC(C)(C)[C@@H](C(=O)N[C@@H](Cc2ccc(OCCN)cc2)C(=O)N[C@@H](Cc2ccc3ccccc3c2)C(=O)N[C@@](C)(CCCCN)C(=O)N[C@@H](CCCCNC(C)=O)C(=O)N[C@@H](CC(N)=O)C(=O)N[C@H](CC(C)C)C(N)=O)NC1=O [compound 286] (Ac-[Pen]NT[X4]K(Ac)[Pen][AEF][2Nal][αMeK]K(Ac)N[dL]-NH2; disulfide 1-6)
> 1440 min
